Source: PubChem BioAssay

Quick reference: z-score of the listed items.
Assay: blood-stage malaria parasite viability loss – strain 3D7, DAPI fluorescence, 100 nL, primary screen (AID 1184);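 further: parasites grown inside human red blood cells in medium with human serum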
Conditions: P. falciparum 3D7 growth, 3 d, higher = more signal

-- ask What does the data say about its z-score? Entry: C=C(/C(=C/C[C@H](OC(=O)c1ccncc1)c1ccc(OCCO)cc1)c1cc(C(=O)OC)ccc1OC)C(C)C
-- reply -2.87

-- ask And then CC(C)=CCCC(C)=CC(O)C1C=CC2C(=O)N(c3ccccc3)C(=O)C2N1Nc1ccc(C(C)C)cc1 (stereo not given) , what is it?
-- reply -0.25

-- ask Another compound to check: NCCCCCCNC(=O)[C@H]1C[C@H]2C(=O)N[C@@H](Cc3ccccc3)C(=O)N2[C@H]1c1cccc(OCCO)c1
-- reply -0.516

-- ask Entry COCC(=C=CC[C@H](O)c1cccc(OCCO)c1)C[C@H](O)c1cc(Cl)cc(Cl)c1O please
-- reply -0.366

-- ask And what about the compound CC(C)C(=C=CC[C@H](O)c1ccc(CO)o1)CCO ?
-- reply 1.27

-- ask Further, for C=CC[C@]1(C(=O)NCc2ccccc2)N=C(c2ccc(OCCCO)cc2)O[C@H]1c1ccccc1CN=[N+]=[N-] ?
-- reply -2.53

-- ask Continue with C=C(/C(=C/C[C@H](OC(C)=O)c1ccc(OCCO)cc1)c1cc(C(=O)OC)ccc1OC)C(C)C
-- reply -2.9
